Tested on: PC-3
TEST: Concentration which produces 50% inhibition of growth of prostate tumor cell line PC-3
Type: functional, cell-based
CONDITION DESCRIPTION: Homo sapiens
READOUT KIND: IC50 (nM)
Only the number, expressed in nM, is required.

Request: Please give the measured IC50 for this compound: COc1ccc(-c2coc(=O)n2-c2cc(OC)c(OC)c(OC)c2)cc1N
Response: 2.5

Request: Same for COc1ccc(-c2oc(O)nc2-c2cc(OC)c(OC)c(OC)c2)cc1
Response: 20.1

Request: Same for COc1ccc(-c2coc(=O)n2-c2cc(OC)c(OC)c(OC)c2)cc1O
Response: 2.3

Request: Same for COc1cc(-n2c(-c3ccc4ccccc4c3)coc2=O)cc(OC)c1OC
Response: 3.1

Request: Same for COc1cc(-n2c(-c3ccc4c(c3)OCO4)coc2=O)cc(OC)c1OC
Response: 70.6

Request: Same for COc1cc(-c2nc(O)oc2-c2ccc3ccccc3c2)cc(OC)c1OC
Response: 7.1

Request: Same for COc1ccc(/C=C\c2cc(OC)c(OC)c(OC)c2)cc1O [COMBRETASTATIN A4]
Response: 2.7

Request: Same for COc1ccc(-c2oc(O)nc2-c2cc(OC)c(OC)c(OC)c2)cc1O
Response: 6.4

Request: Same for COc1cc(-c2nc(O)oc2-c2ccc3c(c2)OCO3)cc(OC)c1OC
Response: 112

Request: Same for COc1ccc(-c2oc(O)nc2-c2cc(OC)c(OC)c(OC)c2)cc1N
Response: 2.1

Request: Same for COc1ccc(-c2coc(=O)n2-c2cc(OC)c(OC)c(OC)c2)cc1
Response: 7.5

---

Test system: B16
TEST: Concentration which produces 50% inhibition of growth of murine melanoma B16 cell line
Type: functional, cell-based
CONDITION DESCRIPTION: Mus musculus
READOUT KIND: IC50 (nM)
Only the number, expressed in nM, is required.

Request: Please give the measured IC50 for this compound: COc1ccc(-c2nc(O)oc2-c2cc(OC)c(OC)c(OC)c2)cc1
Response: 1390

Request: Same for COc1ccc(-c2oc(O)nc2-c2cc(OC)c(OC)c(OC)c2)cc1N
Response: 2.4

Request: Same for COc1ccc(-c2coc(=O)n2-c2cc(OC)c(OC)c(OC)c2)cc1
Response: 7.9

Request: Same for COc1cc(-n2c(-c3ccc4ccccc4c3)coc2=O)cc(OC)c1OC
Response: 5.8

Request: Same for COc1cc(-c2nc(O)oc2-c2ccc3c(c2)OCO3)cc(OC)c1OC
Response: 89.3
